// provenance: PubChem BioAssay (NCI)

Listed compounds paired with reported growth
Test system: OVCAR-5 ovarian
Test: NCI-60 one-dose screen, 48 h (100 = growth as untreated, 0 = no growth, -100 = all killed)
Conditions: 10 µM unless noted
This is part of a sample that, as a whole, favours compounds with a hit. Of some 83,000 tested, about 20% had one in any assay.
Only the number, expressed in %, is required.

>  <compound>
CC[C@H](Nc1nc(N)nc(C2CC2)c1C#N)c1nc2cccc(NCc3ccc(C(=O)NO)cc3)c2c(=O)n1-c1ccccc1

>  <growth (%)>
14.8

$$$$

Query block: Please give measured growth of the following entry: "COc1ccc(-c2oc(=O)ccc2-c2cc(OC)c(OC)c(OC)c2)cc1F"
Result block: 69.2

Query block: Please give measured growth of the following entry: COc1cc(C2CC(c3cccc(Nc4ccnc5cc(Cl)ccc45)c3)=NN2c2ccc(Cl)cc2)cc(OC)c1OC (stereo unspecified)
Result block: 80.2

Query block: Please give measured growth of the following entry: "C/C(CC(=O)NNc1ccc([N+](=O)[O-])cc1)=N\Nc1ccc([N+](=O)[O-])cc1"
Result block: 48.8

Query block: Please give measured growth of the following entry: CC(=O)OC1Oc2cc(C)c(C)cc2-c2oc(=O)c(-c3ccc(F)cc3)cc21 (stereo unspecified)
Result block: 86.2

Query block: Please give measured growth of the following entry: O=C(Nc1ccccc1)C(CCCCN1C(=O)c2ccccc2C1=O)N1C(=O)c2ccccc2C1=O (stereo unspecified)
Result block: 103

====

Tested on: SK-OV-3 ovarian
Assay: NCI-60 one-dose screen, 48 h (100 = growth as untreated, 0 = no growth, -100 = all killed)
Details: 10 µM unless noted
Compounds without any hit were thinned out: in the full panel of roughly 83,000, 20% have a hit.
We use 40% as the dividing line for growth: on or above the line is MET, below is NOT MET.

Query block: Is the recorded value of growth equal to or greater than 40% for this molecule? "NC(N)=N/N=C\c1cccc(OCc2ccccc2)c1"
Result block: MET

Query block: Is the recorded value of growth equal to or greater than 40% for this molecule? CC(=O)OC1Oc2cc(C)c(C)cc2-c2oc(=O)c(-c3cc4ccccc4oc3=O)cc21 (stereo not given)
Result block: MET

Query block: Is the recorded value of growth equal to or greater than 40% for this molecule? "COc1ccc2[nH]c(O)c(/C=c3/ccc4c(c3)N=C(c3ccc(F)cc3)N=4)c2c1"
Result block: MET

Query block: Is the recorded value of growth equal to or greater than 40% for this molecule? CC(CN1CCN(CCOCCO)CC1)CN1c2ccccc2Sc2ccc(Cl)cc21 (stereo not given)
Result block: MET

Query block: Is the recorded value of growth equal to or greater than 40% for this molecule? "CCCCc1n(Cc2ccc3ccccc3n2)cc[n+]1Cc1ccc2ccccc2n1"
Result block: NOT MET

Query block: Is the recorded value of growth equal to or greater than 40% for this molecule? "COc1ccc(C(=O)c2cc(C)c(OC)c(C)c2)cc1OC(=O)CCl"
Result block: NOT MET

Query block: Is the recorded value of growth equal to or greater than 40% for this molecule? "Cc1c(C)c(C)c([N+](=O)[O-])c([N+](=O)[O-])c1C"
Result block: MET

Query block: Is the recorded value of growth equal to or greater than 40% for this molecule? CNCc1cccc2c1OCCOCCOCCC(C)S(=O)(=O)c1ccc(cc1)-c1cnc(N)c(n1)C(=O)N2 (stereo not given)
Result block: NOT MET

Query block: Is the recorded value of growth equal to or greater than 40% for this molecule? CCOC(=O)C1=C(C)NC(SCc2nnc(-c3ccc(Cl)cc3)o2)=NC1c1ccc(Cl)cc1 (stereo not given)
Result block: MET
